Record form. Attribute: log2 ratio of Biotin-Ahx-Ub-VS probe labelling. Fill in for each entry.
# target-desc: USP22 (UniProt Q9UPT9)
# Sequence (whole entry): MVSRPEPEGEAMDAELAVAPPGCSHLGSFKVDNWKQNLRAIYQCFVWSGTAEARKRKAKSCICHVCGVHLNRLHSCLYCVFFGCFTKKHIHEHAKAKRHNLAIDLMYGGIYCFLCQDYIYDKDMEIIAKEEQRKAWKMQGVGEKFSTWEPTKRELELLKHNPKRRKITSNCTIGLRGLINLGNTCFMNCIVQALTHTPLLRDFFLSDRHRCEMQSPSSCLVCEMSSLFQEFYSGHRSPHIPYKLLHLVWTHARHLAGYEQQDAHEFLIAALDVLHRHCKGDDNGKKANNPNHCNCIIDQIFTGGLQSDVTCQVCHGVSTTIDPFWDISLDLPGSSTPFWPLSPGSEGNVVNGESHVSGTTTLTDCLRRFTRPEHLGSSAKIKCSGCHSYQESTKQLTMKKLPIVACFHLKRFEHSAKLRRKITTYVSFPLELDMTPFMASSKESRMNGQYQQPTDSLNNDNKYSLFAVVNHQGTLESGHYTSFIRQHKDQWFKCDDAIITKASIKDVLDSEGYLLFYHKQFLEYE
# procedure-summary: log2 ratio of Biotin-Ahx-Ub-VS probe labelling (fragment/DMSO); higher = less target engagement (more negative = stronger competition), active = hit call of the paper (q ≤ 0.05, log2 ratio ≤ -1)
# condition-details: compound concentration: 200 uM; treatment time: 3 h
One number for each entry.

Completed entries (count: 3):
compound: O=C(CCl)N1CCc2nc[nH]c2C1c1ccc(Cl)cc1 (stereo not given)
val: 0.00421
//
compound: O=C(CCl)N1CCC(C(=O)N2CCCCCC2)CC1
val: -0.145
//
compound: CN(C)S(=O)(=O)c1ccccc1CNC(=O)CCl
val: -0.12

Give log2 ratio of Biotin-Ahx-Ub-VS probe labelling for all compounds that follow.
1. O=C(CCl)NCc1ccc(N2CCOCC2)c(F)c1
2. O=C(CCl)N1CCOCCC1c1ccccc1 (stereo not given)
3. O=C(CCl)NCCC1=CCCCC1
4. Cc1n[nH]c(=O)c2c(NC(=O)CCl)oc(C)c12
5. Cl.O=C(CCl)NCc1ccnc(Oc2ccccc2F)c1

Response:
1: -0.359; 2: 0.147; 3: -0.0359; 4: -0.281; 5: -0.353

Give log2 ratio of Biotin-Ahx-Ub-VS probe labelling for all compounds that follow.
1. Cc1cccc2nc(CCNC(=O)CCl)cn12.Cl
2. O=C(CCl)N1CCC(=C(F)CO)C1
3. N#Cc1ccccc1N1CCN(C(=O)CCl)CC1
4. NS(=O)(=O)c1ccc(Cl)c(NC(=O)CCl)c1
5. O=C(CCl)NCc1ccc2c(c1)OCO2
6. Cc1ncsc1CCNC(=O)CCl
7. Cc1c(NC(=O)CCl)c(=O)n(-c2ccccc2)n1C

Response:
1: 0.075; 2: 0.192; 3: 0.0569; 4: -0.46; 5: -0.126; 6: 0.314; 7: -0.000691

Give log2 ratio of Biotin-Ahx-Ub-VS probe labelling for all compounds that follow.
1. Cc1ccc(-c2nnc(C)[nH]2)c(NC(=O)CCl)c1
2. Cc1cccc(NC(=O)CCl)c1C

Response:
[0.0459, -0.267]

Give log2 ratio of Biotin-Ahx-Ub-VS probe labelling for all compounds that follow.
1. O=C(CCl)NCCC1COCCO1 (stereo not given)
2. Cc1cc(C2CCCN2C(=O)CCl)nn1C.Cl (stereo not given)
3. Cl.O=C(CCl)N1CCC(Cc2nccs2)C1 (stereo not given)
4. COCC[C@@H](NC(=O)CCl)c1ccccc1
5. O=C(CCl)NCc1ccc(Cl)cc1
6. Cc1cc(Cl)ccc1NC(=O)CCl

Response:
1: 0.193; 2: -0.312; 3: 0.0323; 4: 0.104; 5: -0.199; 6: -0.467

Give log2 ratio of Biotin-Ahx-Ub-VS probe labelling for all compounds that follow.
1. Cl.O=C(CCl)NC1(c2ncccn2)CCC1
2. COc1ccccc1C(C)NC(=O)CCl (stereo not given)

Response:
0.221
-0.46
